// provenance: ChEMBL document CHEMBL1134817

Target: Opioid receptors; delta & kappa (Homo sapiens) (UniProt P41145+P41143)
Sequence (P41143 whole entry, looked up): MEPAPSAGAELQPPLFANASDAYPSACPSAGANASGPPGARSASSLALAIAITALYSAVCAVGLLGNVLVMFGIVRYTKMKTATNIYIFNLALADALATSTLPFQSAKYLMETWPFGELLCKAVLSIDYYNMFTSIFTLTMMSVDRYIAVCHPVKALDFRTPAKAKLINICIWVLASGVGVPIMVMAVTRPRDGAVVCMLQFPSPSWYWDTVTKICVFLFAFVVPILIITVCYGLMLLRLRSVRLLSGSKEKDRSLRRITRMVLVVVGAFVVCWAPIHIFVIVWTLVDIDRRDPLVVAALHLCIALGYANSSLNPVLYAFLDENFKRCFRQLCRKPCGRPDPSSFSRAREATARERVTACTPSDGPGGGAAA
Sequence (P41145 whole entry, looked up): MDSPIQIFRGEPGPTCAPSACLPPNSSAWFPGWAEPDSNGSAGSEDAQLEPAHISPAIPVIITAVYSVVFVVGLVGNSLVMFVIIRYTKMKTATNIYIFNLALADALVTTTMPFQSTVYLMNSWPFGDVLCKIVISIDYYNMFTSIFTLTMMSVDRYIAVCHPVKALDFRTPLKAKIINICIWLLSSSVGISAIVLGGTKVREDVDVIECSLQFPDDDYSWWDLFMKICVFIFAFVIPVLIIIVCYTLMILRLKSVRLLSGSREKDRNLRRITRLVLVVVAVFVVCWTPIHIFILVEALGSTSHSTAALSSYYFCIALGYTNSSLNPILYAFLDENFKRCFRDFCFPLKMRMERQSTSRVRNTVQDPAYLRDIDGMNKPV
Assay: Selectivity ratio of kappa opioid receptor to that of delta opioid receptor in guinea pig brain membranes
Type: cell membranes
Details: Cavia porcellus; target entry is the homologue from another species
I'd appreciate it if you marked entries yes (1) when Selectivity is lower than 20 and no (0) when it is not.

>  <mol>
Oc1ccc2c(c1)C[C@@H]1[C@@H]3CCCCC23CCN1CC1CCCCC1

>  <class_name>
no (0)

$$$$
>  <mol>
Oc1ccc2c(c1)C[C@@H]1[C@@H]3CCCC[C@]23CCN1CCC(F)(F)F

>  <class_name>
no (0)

$$$$
>  <mol>
O=C(CCN1CC[C@]23CCCC[C@H]2[C@H]1Cc1cc(O)ccc13)c1ccccc1

>  <class_name>
yes (1)

$$$$
>  <mol>
Oc1ccc2c(c1)C[C@@H]1[C@@H]3CCCCC23CCN1Cc1cccs1

>  <class_name>
no (0)

$$$$
>  <mol>
CN1CC[C@]23CCCC[C@H]2[C@H]1Cc1ccc(O)cc13

>  <class_name>
yes (1)

$$$$
>  <mol>
COCCN1CC[C@]23CCCC[C@H]2[C@H]1Cc1cc(O)ccc13

>  <class_name>
yes (1)

$$$$

----------
Target: Opioid receptors; mu & kappa (Homo sapiens) (UniProt P41145+P35372)
Sequence (P35372 whole entry, looked up): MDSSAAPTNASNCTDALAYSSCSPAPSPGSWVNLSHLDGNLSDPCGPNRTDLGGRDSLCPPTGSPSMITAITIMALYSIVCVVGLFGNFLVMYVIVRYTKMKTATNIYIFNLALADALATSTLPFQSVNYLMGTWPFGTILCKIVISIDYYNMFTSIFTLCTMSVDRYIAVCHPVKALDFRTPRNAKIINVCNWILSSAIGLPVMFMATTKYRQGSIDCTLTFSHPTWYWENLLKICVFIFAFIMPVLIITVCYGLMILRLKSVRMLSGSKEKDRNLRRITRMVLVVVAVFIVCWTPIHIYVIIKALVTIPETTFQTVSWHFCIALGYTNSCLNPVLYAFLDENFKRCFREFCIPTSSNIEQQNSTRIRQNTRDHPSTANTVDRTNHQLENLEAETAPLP
Sequence (P41145 whole entry, looked up): as the sequence (P41145 whole entry, looked up) above
Assay: Selectivity ratio of kappa opioid receptor to that of mu opioid receptor in guinea pig brain membranes
Assay type: cell membranes
Settings: Cavia porcellus; target entry is the homologue from another species
Flag rule - Selectivity less than 2 flags label 1; the remaining entries get label 0.

>  <molecule>
Oc1ccc2c(c1)C[C@@H]1[C@@H]3CCCC[C@]23CCN1CCC(O)c1ccccc1 (stereo not given in full)

>  <class_name>
label 1

$$$$
>  <molecule>
O=C(CCN1CC[C@]23CCCC[C@H]2[C@H]1Cc1cc(O)ccc13)c1cccs1

>  <class_name>
label 1

$$$$
>  <molecule>
Oc1ccc2c(c1)C[C@@H]1[C@@H]3CCCC[C@]23CCN1C/C=C/I

>  <class_name>
label 1

$$$$
>  <molecule>
Oc1ccc2c(c1)C[C@@H]1[C@@H]3CCCC[C@]23CCN1Cc1ccccc1

>  <class_name>
label 0

$$$$
>  <molecule>
N#CCCCN1CC[C@]23CCCC[C@H]2[C@H]1Cc1cc(O)ccc13

>  <class_name>
label 1

$$$$
>  <molecule>
Oc1ccc2c(c1)C[C@@H]1[C@@H]3CCCCC23CCN1CC1CCCCC1

>  <class_name>
label 0

$$$$
>  <molecule>
Oc1ccc2c(c1)C[C@@H]1[C@@H]3CCCCC23CCN1CC1CCCC1

>  <class_name>
label 0

$$$$
>  <molecule>
O=C(CCN1CC[C@]23CCCC[C@H]2[C@H]1Cc1cc(O)ccc13)c1ccccc1

>  <class_name>
label 1

$$$$

----------
UniProtKB P97266 Ki data
Sequence (P97266 whole entry): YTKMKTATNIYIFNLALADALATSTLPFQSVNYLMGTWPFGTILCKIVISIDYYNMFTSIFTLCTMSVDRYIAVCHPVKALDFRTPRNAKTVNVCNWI
property_measured: Ki

>  <compound>
Oc1ccc2c(c1)C[C@@H]1[C@@H]3CCCC[C@]23CCN1CCc1ccccc1

>  <result>
120 pM

$$$$
>  <compound>
Oc1ccc2c(c1)C[C@@H]1[C@@H]3CCCCC23CCN1CC1CCCC1

>  <result>
960 pM

$$$$
>  <compound>
Oc1ccc2c(c1)C[C@@H]1[C@@H]3CCCC[C@]23CCN1C/C=C/I

>  <result>
4.8 pM

$$$$
>  <compound>
C#CCN1CC[C@]23CCCC[C@H]2[C@H]1Cc1ccc(O)cc13

>  <result>
3.2 pM

$$$$
>  <compound>
Oc1ccc2c(c1)C[C@@H]1[C@@H]3CCCC[C@]23CCN1CCC(O)c1cccs1 (stereo not given in full)

>  <result>
4100 pM

$$$$
